# protocol_notes: Antioxidant activity assessed as inhibition of AAPH-induced linoleic acid peroxidation at 100 uM by UV spectrophotometric analysis relative to control
# Format: functional
Activity calls are given as the source filed them. The calls are words filed in the database; no cut-off is given here.
property: inhibition

Request the reported inhibition associated with Cc1ccc(S(=O)(=O)O/N=C(\N)c2ccncc2)cc1
inactive

Next record, please: N/C(=N\OS(=O)(=O)c1ccccc1)c1ccc([N+](=O)[O-])cc1
5%

Next record, please: N/C(=N\O)c1ccccn1
inactive

Next record, please: CCCCCCCCCCS(=O)(=O)O/N=C(\N)c1ccncc1
28%

Next record, please: Cc1ccc(S(=O)(=O)O/N=C(\N)c2ccc([N+](=O)[O-])cc2)cc1
25%

Next record, please: N/C(=N\O)c1cccnc1
inactive

Next record, please: CCCCCCCCCCS(=O)(=O)O/N=C(\N)c1ccccn1
46%

Next record, please: CCCS(=O)(=O)O/N=C(\N)c1ccccn1
inactive

Next record, please: N=C(NOS(=O)(=O)c1ccccc1)c1ccccn1
30%

Next record, please: CCCCCCCCCCS(=O)(=O)O/N=C(\N)c1ccc([N+](=O)[O-])cc1
inactive

Continuing:
Request the reported inhibition associated with NC(=NOS(=O)(=O)c1ccc([N+](=O)[O-])cc1)c1ccncc1
49%

Next record, please: Cc1ccc(S(=O)(=O)O/N=C(\N)c2cccnc2)cc1
43%

Next record, please: CCCCCCCCCCS(=O)(=O)O/N=C(\N)c1cccnc1
33%

Next record, please: CCCS(=O)(=O)O/N=C(\N)c1ccncc1
inactive

Next record, please: N=C(NOS(=O)(=O)c1ccccc1)c1cccnc1
21%

Next record, please: NC(=NO)c1ccncc1
inactive

Next record, please: CCCCCCCCCCCCCCCCS(=O)(=O)O/N=C(\N)c1ccc([N+](=O)[O-])cc1
3%

Next record, please: CCCS(=O)(=O)O/N=C(\N)c1cccnc1
16%

Next record, please: CCCCCCCCCCCCCCCCS(=O)(=O)O/N=C(\N)c1ccccn1
21%

Next record, please: CCCS(=O)(=O)O/N=C(\N)c1ccc([N+](=O)[O-])cc1
22%

Next record, please: N/C(=N\O)c1ccc([N+](=O)[O-])cc1
41%

Next record, please: CCCCCCCCCCCCCCCCS(=O)(=O)O/N=C(\N)c1ccncc1
12%

Next record, please: N=C(NOS(=O)(=O)c1ccccc1)c1ccncc1
22%
